The molecules listed here are annotated with their Ki.
target: factor XIIa (Homo sapiens, UniProt P00748); test: inhibition of factor XIIa, dissociation constant Ki
Sequence (P00748 373-615 limits assumed): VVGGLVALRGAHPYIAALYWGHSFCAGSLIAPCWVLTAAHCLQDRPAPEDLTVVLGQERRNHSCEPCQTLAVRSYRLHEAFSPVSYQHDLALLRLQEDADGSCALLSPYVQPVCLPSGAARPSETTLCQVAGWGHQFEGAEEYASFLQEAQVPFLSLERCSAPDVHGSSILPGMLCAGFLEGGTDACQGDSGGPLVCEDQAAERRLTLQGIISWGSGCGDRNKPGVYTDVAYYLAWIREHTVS

Previously resolved entries follow.
> print(dat)
                                   molecule  result
1  CCS(=O)(=O)N1CCN(C(=O)C(Cc2cccc(C(=N)N)c2)NS(=O)(=O)c2ccc3ccccc3c2)CC1 (stereo not drawn)  212 µM
2  N=C(N)c1cccc(CC(NS(=O)(=O)c2ccc3ccccc3c2)C(=O)N2CCN(C(=O)Cc3cccs3)CC2)c1 (stereo not drawn) [AMD 2-Naph drawing 11]   72 µM

Note: attention shifts to another entry.
// recorded Ki for N=C(N)c1cccc(CC(NS(=O)(=O)c2ccc3c(c2)C(=O)c2ccccc2C3=O)C(=O)N2CCN(C=O)CC2)c1 (stereo not drawn) : 7.2 µM
